- testDescription: E. coli acrAB mutant growth effects, primary screen, E. coli filamentation inducers, strain DRC39, OD650, 24 h (AID 1178);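 note: growth measured as culture turbidity by optical density at 650 nm; test concentration not given here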
- conditionDetails: higher = more signal, called active from +8 up or from −8 down
# if value of z-score reaches -0.03, tag 1.0; if it stays below, tag 0.0

COC(=O)C1(Cc2ccccc2)C=C2C(=C(C(C)C)C(=O)C2C)CN1 (centres undefined)	0.0
CN1C2C=C(CCCO)C(C3C(=O)N(C(N)=O)C(=O)C32)C1c1cccs1 (centres undefined)	0.0
CC(=O)n1cc(C(O)C2C=CC3C(=O)N(c4ccccc4)C(=O)C3N2Nc2ccccc2)c2ccccc21 (centres undefined)	0.0
O=C1OCC=C[C@H]2OC34C=CCN(Cn5nnc6ccccc65)C(=O)[C@H]3N(CCCCCCO)C(=O)[C@@H]4[C@@H]12 (some centres undefined)	1.0
COC(=O)C(CC#Cc1ccc2c(c1)[C@]1(C(=O)N2)[C@H](C(=O)O)[C@H]2C(=O)O[C@H](c3ccccc3)[C@H](c3ccccc3)N2[C@@H]1c1ccccc1OCCO)C(=O)OC	1.0
CC(C)c1ccc(NN2C(C(O)c3ccco3)C=CC3C(=O)N(c4ccccc4)C(=O)C32)cc1 (centres undefined)	0.0
C[C@]1(C(=O)NC2CC2)c2ccccc2C(=O)N(Cc2ccc(OC(F)(F)F)cc2)[C@H]1c1ccc(CO)cc1	1.0
CCOc1cc(C(O)C2C=CC3C(=O)N(C4CCCCC4)C(=O)C3N2Nc2ccc(OC)cc2)ccc1O (centres undefined)	1.0
COCCCNC(=O)[C@@H]1c2ccccc2C(=O)N(Cc2ccccc2C(F)(F)F)[C@H]1c1ccc(CO)cc1	1.0
C=CCOC(=O)[C@@H]1[C@H]2C(=O)O[C@H](c3ccccc3)[C@H](c3ccccc3)N2[C@H](c2ccc(OCCOC(=O)[C@H]3C[C@H]4C(=O)N[C@@H](CCCCN(C)C)C(=O)N4[C@H]3c3cccc(OCCO)c3)cc2)[C@@]12C(=O)Nc1ccc(I)cc12	0.0
C=CCOC(=O)[C@H]1[C@@H]2C(=O)O[C@@H](c3ccccc3)[C@@H](c3ccccc3)N2[C@@H](c2ccc(OCCOC(=O)[C@H]3C[C@H]4C(=O)N[C@@H](Cc5ccccc5)C(=O)N4[C@H]3c3cccc(OCCO)c3)cc2)[C@]12C(=O)Nc1ccc(I)cc12	1.0
NC(=O)N1C(=O)C2C(C1=O)C1C=C(CCCO)C2C(c2cccs2)N1Cc1cc2c(cc1Br)OCO2 (centres undefined)	1.0
C#CCNC(=O)[C@H](Cc1ccccc1)NC(=O)[C@@H](N=[N+]=[N-])C(C)C	1.0
CCOC(=O)C1=CC[C@@H](c2cc(Cl)ccc2Cl)N(S(=O)(=O)c2ccc(C)cc2)[C@H]1c1ccc(OC)cc1	0.0
